The values you see were collected from patent US12129308B2.

Assay Text: thermal shift assay (TSA)
Assay type: physicochemical
Conditions: pH 7; C0101517A01 2nd round sequence optimization variants
TSA Tm (° C.)@ pH 7 values for the molecules below.

Molecule	TSA Tm (° C.)@ pH 7 (°C)
517A01: anti-MMP13 Nanobody, profile 2, SEQ ID NO: 10; C010100087 is the parental of Table 6.7.1D (protein) VHH: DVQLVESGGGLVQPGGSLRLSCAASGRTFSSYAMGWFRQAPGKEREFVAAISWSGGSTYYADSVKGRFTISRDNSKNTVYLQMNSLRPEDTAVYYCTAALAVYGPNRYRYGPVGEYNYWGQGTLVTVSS	78
C010100647: C0101517A01 sequence optimization variant, mutations N100bQ, N101V (protein) VHH: DVQLVESGGGLVQPGGSLRLSCAASGRTFSSYAMGWFRQAPGKEREFVAAISWSGGSTYYADSVKGRFTISRDNSKNTVYLQMNSLRPEDTAVYYCTAALAVYGPQRYRYGPVGEYVYWGQGTLVTVSS	81
C010100648: C0101517A01 sequence optimization variant, mutations N100bQ, N101Q (protein) VHH: DVQLVESGGGLVQPGGSLRLSCAASGRTFSSYAMGWFRQAPGKEREFVAAISWSGGSTYYADSVKGRFTISRDNSKNTVYLQMNSLRPEDTAVYYCTAALAVYGPQRYRYGPVGEYQYWGQGTLVTVSS	81
C010100649: C0101517A01 sequence optimization variant, mutations N100bS, N101Q (protein) VHH: DVQLVESGGGLVQPGGSLRLSCAASGRTFSSYAMGWFRQAPGKEREFVAAISWSGGSTYYADSVKGRFTISRDNSKNTVYLQMNSLRPEDTAVYYCTAALAVYGPSRYRYGPVGEYQYWGQGTLVTVSS	79
